- System: SK-MEL-2
- experiment.description: NCI tumour cell line growth inhibition, 48 h
Activity calls are given as the source filed them. No stated cut-off is given here; in the data, active = GI50 up to about 1.1 µM and inactive = higher.
# reported GI50; entries follow
value.kind: GI50

compound="COc1ccccc1C(=O)OCC1CCCN2CCCCC12 (stereo unspecified)" test_system=SK-MEL-2 data_value="54.3 µM (inactive)"
compound=CC[C@@]1(O)C(=O)OCc2c1cc1n(c2=O)Cc2c-1nc1ccccc1c2/C=N\NC(=O)CN test_system=SK-MEL-2 data_value="23.8 µM (inactive)"
compound=COc1ccc(-c2cc(-c3cc(C)cc(Br)c3O)no2)cc1 test_system=SK-MEL-2 data_value="22.2 µM (inactive)"
compound=Cc1nn(-c2ccccn2)c2c1C(SC#N)=C(C=O)CC2 test_system=SK-MEL-2 data_value="16.9 µM (inactive)"
compound=Clc1nc(Cl)c(Cc2ccccc2)c(Cl)n1 test_system=SK-MEL-2 data_value="7.45 µM (inactive)"
compound="C[C@H]1[C@H](C)CC[C@]2(C(=O)O)CCC3(COC(=O)/C=C/c4ccc(O)cc4)C(=CCC4[C@@]5(C)CC[C@H](O)C(C)(C)C5CC[C@]43C)[C@H]12 (stereo partly specified)" test_system=SK-MEL-2 data_value="19.1 µM (inactive)"
compound="O=C1/C(=C/c2ccc3c(c2)OCO3)CCC1CN1CCOCC1 (stereo unspecified)" test_system=SK-MEL-2 data_value="12 µM (inactive)"
compound=O=S(=O)(/N=c1/[nH]c2ccccc2n1S(=O)(=O)c1ccccc1)c1ccccc1 test_system=SK-MEL-2 data_value="35.4 µM (inactive)"
compound="CCCOP1(=O)C=CC(Cl)=C(C)C1 (stereo unspecified)" test_system=SK-MEL-2 data_value="23.9 µM (inactive)"
compound=CCOC(=O)Cn1nc2ccc(Nc3nc4ccccc4nc3C(=O)OCC)cc2n1 test_system=SK-MEL-2 data_value="54.6 µM (inactive)"
compound="C=C1C(=O)O[C@H]2[C@H]1[C@H](OC(=O)/C(C)=C\\C)C[C@]1(CO1)[C@@H]1[C@H](OC(C)=O)C=C(C)[C@]21O [EUPAROTIN ACETATE]" test_system=SK-MEL-2 data_value="25.5 µM (inactive)"
